species on record: Homo sapiens; assay: Selectivity ratio of IC50 for inhibition of CDK4/cyclin D1 (unknown origin) to IC50 for inhibition recombinant human N-terminal GST-tagged full-length CDK2/Flag-tagged cyclinE1 expressed in baculovirus expression system
OBSERVED_PROPERTY: Ratio IC50

COMPOUND	MEAS_VALUE
Cn1cc(S(=O)(=O)N2CCC(Nc3ncc4c(n3)N([C@@H]3CCC[C@@H](O)C3)C(=O)C43CC3)CC2)cn1	110
CNS(=O)(=O)c1ccc(Nc2ncc3c(n2)N(c2cc(F)ccc2Cl)C(=O)C32CC2)cc1	58
CNS(=O)(=O)c1ccc(Nc2ncc3c(n2)N([C@@H]2CCC[C@@]2(C)O)C(=O)C32CC2)cc1 (relative stereo)	230
C[C@@H]1CCC[C@H]1N1C(=O)C2(CC2)c2cnc(Nc3ccc(S(=O)(=O)NCCO)cc3)nc21 (relative stereo)	29
C[C@@H]1CCC[C@H]1N1C(=O)C2(CC2)c2cnc(Nc3ccc(S(=O)(=O)N[C@@H]4CCCN(C)C4)cc3)nc21	8

---

target: Cyclin-dependent kinase 2/cyclin E1 (Homo sapiens); assay: Inhibition of recombinant human N-terminal GST-tagged full-length CDK2/Flag-tagged cyclinE1 expressed in baculovirus expression system using eIF4E-binding protein-1 peptide as substrate incubated for 1 hr in presence of ATP by HTRF assay
Cut-off 4 nM on IC50: below means rule met, at or above means rule not met.

COMPOUND	CLASS
CC1(C)Cc2cnc(Nc3ccc(S(N)(=O)=O)cc3)nc2N(C2CCCC2)C1=O	rule not met
CS(=O)(=O)N1CCC(Nc2ncc3c(n2)N(C2CCCCC2)C(=O)C32CC2)CC1	rule not met
Cc1nn2cnc3[nH]ccc3c2c1C1CCCCC1	rule not met
CNS(=O)(=O)c1ccc(Nc2ncc3c(n2)N([C@@H](C)C2CC2)C(=O)C32CC2)cc1	rule met
CN1Cc2cnc(Nc3ccc(S(N)(=O)=O)cc3)nc2C(C)(C)C1=O	rule not met
CS(=O)(=O)N1CCC(Nc2ncc3c(n2)N(C2CCOCC2)C(=O)C32CC2)CC1	rule not met
CC[C@@H](C(F)F)N1C(=O)C2(CC2)c2cnc(NC3CCN(S(C)(=O)=O)CC3)nc21	rule not met
Cn1cc(S(=O)(=O)N2CCC(Nc3ncc4c(n3)N(C3CCCC3)C(=O)C43CC3)CC2)cn1	rule not met
C[C@H]1CCC[C@@H]1N1C(=O)C2(CC2)c2cnc(NC3CCN(S(C)(=O)=O)CC3)nc21 (mixture of isomers)	rule not met
C[C@@H]1CCC[C@H]1N1C(=O)C2(CC2)c2cnc(Nc3ccc(S(=O)(=O)NCCO)cc3)nc21 (relative stereo)	rule met
CNS(=O)(=O)c1ccc(Nc2ncc3c(n2)N([C@H]2CCC[C@@H]2C)C(=O)C32CC2)cc1 (relative stereo)	rule met
CS(=O)(=O)N1CCC(Nc2ncc3c(n2)N(c2ccccc2)C(=O)C32CC2)CC1	rule not met
CS(=O)(=O)N1CCC(Nc2ncc3c(n2)N(C2CCCC2)C(=O)C32CC2)CC1	rule not met
CNS(=O)(=O)c1ccc(Nc2ncc3c(n2)N(c2cc(F)ccc2Cl)C(=O)C32CC2)cc1	rule met
CS(=O)(=O)N1CCC(Nc2ncc3c(n2)N(CC(F)F)C(=O)C32CC2)CC1	rule not met
Cc1nn(C)cc1-c1ccnc(Nc2ccc(S(=O)(=O)N3CCOCC3)cc2)n1	rule not met
Cn1cc(S(=O)(=O)N2CCC(Nc3ncc4c(n3)N([C@@H]3CCC[C@@H](O)C3)C(=O)C43CC3)CC2)cn1	rule met
CNS(=O)(=O)c1ccc(Nc2ncc3c(n2)N([C@@H]2CCC[C@@]2(C)O)C(=O)C32CC2)cc1 (relative stereo)	rule met
CS(=O)(=O)N1CCC(Nc2ncc3c(n2)N(C2CCCC2)C(=O)C32CCC2)CC1	rule not met
CNS(=O)(=O)c1ccc(Nc2ncc3c(n2)N([C@@H]2CCC[C@@H](O)C2)C(=O)C32CC2)cc1	rule met
CC1(C)C(=O)N(C2CCCC2)c2nc(NC3CCN(S(C)(=O)=O)CC3)ncc21	rule not met
CCC1(C)C(=O)N(C2CCCC2)c2nc(NC3CCN(S(C)(=O)=O)CC3)ncc21 (centres undefined)	rule not met
C[C@@H]1CCC[C@H]1N1C(=O)C2(CC2)c2cnc(Nc3ccc(S(=O)(=O)N[C@@H]4CCCN(C)C4)cc3)nc21	rule met

---

organism: Homo sapiens; test: Selectivity ratio of IC50 for inhibition of CDK6/cyclin D1 (unknown origin) to IC50 for inhibition recombinant human N-terminal GST-tagged full-length CDK2/Flag-tagged cyclinE1 expressed in baculovirus expression system

COMPOUND	Ratio IC50
CNS(=O)(=O)c1ccc(Nc2ncc3c(n2)N([C@@H]2CCC[C@@H](O)C2)C(=O)C32CC2)cc1	230
CNS(=O)(=O)c1ccc(Nc2ncc3c(n2)N(c2cc(F)ccc2Cl)C(=O)C32CC2)cc1	120
NS(=O)(=O)c1ccc(Nc2ncc3c(n2)N(C2CCCC2)C(=O)C32CC2)cc1	7
CNS(=O)(=O)c1ccc(Nc2ncc3c(n2)N([C@@H](C)C2CC2)C(=O)C32CC2)cc1	24
CNS(=O)(=O)c1ccc(Nc2ncc3c(n2)N([C@@H]2CCC[C@@]2(C)O)C(=O)C32CC2)cc1 (relative stereo)	88
CNS(=O)(=O)c1ccc(Nc2ncc3c(n2)N([C@H]2CCC[C@@H]2C)C(=O)C32CC2)cc1 (relative stereo)	48
C[C@@H]1CCC[C@H]1N1C(=O)C2(CC2)c2cnc(Nc3ccc(S(=O)(=O)NCCO)cc3)nc21 (relative stereo)	28
C[C@@H]1CCC[C@H]1N1C(=O)C2(CC2)c2cnc(Nc3ccc(S(=O)(=O)N[C@@H]4CCCN(C)C4)cc3)nc21	9
Cn1cc(S(=O)(=O)N2CCC(Nc3ncc4c(n3)N([C@@H]3CCC[C@@H](O)C3)C(=O)C43CC3)CC2)cn1	35

---

biological target: Cyclin-dependent kinase 1 (Homo sapiens); experiment: Inhibition of CDK1 in human OVCAR3 cells incubated for 30 mins in presence of pNPM T199 by western blot analysis
Sequence (P06493 whole entry): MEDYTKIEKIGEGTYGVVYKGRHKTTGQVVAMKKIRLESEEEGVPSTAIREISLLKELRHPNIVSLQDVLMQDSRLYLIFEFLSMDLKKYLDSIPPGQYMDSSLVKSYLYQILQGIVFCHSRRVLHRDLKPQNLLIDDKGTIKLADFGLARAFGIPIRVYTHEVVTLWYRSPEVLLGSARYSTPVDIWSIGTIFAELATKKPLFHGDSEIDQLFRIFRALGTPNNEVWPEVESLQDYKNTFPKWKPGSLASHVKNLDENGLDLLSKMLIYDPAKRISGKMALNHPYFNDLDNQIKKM
Reported values of IC50 for individual entries

SMILES_ENTRY	IC50
NS(=O)(=O)c1ccc(Nc2ncc3c(n2)N(C2CCCC2)C(=O)C32CC2)cc1	1200 nM
CS(=O)(=O)N1CCC(Nc2ncc3c(n2)N(C2CCCC2)C(=O)C32CC2)CC1	> 5000 nM

---

assay: Metabolic stability in human liver microsomes assessed as remaining parent compound at 5 uM measured upto 30 mins by HPLC/MS analysis; format: ADME, Microsome; details: liver microsomes, read-out: Stability

COMPOUND	UNIT_STRING	remaining at 0.5 h, 5 µM
[2H]C([2H])([2H])NS(=O)(=O)c1ccc(Nc2ncc3c(n2)N([C@@H]2CCC[C@@]2(C)O)C(=O)C32CC2)cc1 (relative stereo)	%	85

---

experiment: Intrinsic clearance in human liver microsomes at 1 uM measured upto 30 mins by LC/MS analysis; type: ADME, Microsome; details: read-out: CLH (converted)
Reported values of predicted hepatic clearance at 1 µM for individual entries

COMPOUND	BOUND_OPERATOR	predicted hepatic clearance at 1 µM (mL/min/kg)
C[C@@H]1CCC[C@H]1N1C(=O)C2(CC2)c2cnc(Nc3ccc(S(=O)(=O)N[C@@H]4CCCN(C)C4)cc3)nc21	>	18.3
[2H]C([2H])([2H])NS(=O)(=O)c1ccc(Nc2ncc3c(n2)N([C@@H]2CCC[C@@H](O)C2)C(=O)C32CC2)cc1	=	11.7
CNS(=O)(=O)c1ccc(Nc2ncc3c(n2)N([C@H]2CCC[C@@H]2C)C(=O)C32CC2)cc1 (relative stereo)	=	18.3

---

Reported values of IC50 for individual entries
assay: Inhibition of CDK1/cyclin B (unknown origin) in presence of ATP; set-up: species or system Homo sapiens
OBSERVED_PROPERTY: IC50

MOLECULE	MEAS_VALUE
CS(=O)(=O)N1CCC(Nc2ncc3c(n2)N(C2CCCCC2)C(=O)C32CC2)CC1	> 5 µM
CCC1(C)C(=O)N(C2CCCC2)c2nc(NC3CCN(S(C)(=O)=O)CC3)ncc21 (stereo not drawn)	> 5 µM
CS(=O)(=O)N1CCC(Nc2ncc3c(n2)N(C2CCCC2)C(=O)C32CCC2)CC1	> 5 µM

---

assay: Inhibition of CDK1/cyclin B (unknown origin) in presence of ATP; set-up: species or system Homo sapiens

SMILES_ENTRY	IC50
CN1Cc2cnc(Nc3ccc(S(N)(=O)=O)cc3)nc2C(C)(C)C1=O	> 5 µM
CS(=O)(=O)N1CCC(Nc2ncc3c(n2)N(C2CCCC2)C(=O)C32CC2)CC1	> 5 µM
CC1(C)C(=O)N(C2CCCC2)c2nc(NC3CCN(S(C)(=O)=O)CC3)ncc21	> 5 µM
